- Species: Gallus gallus
- Assay summary: Bind to chick intestinal Vitamin D3 receptor for 1,25-(OH)2-D3
Below, each entry is listed with its recorded B50.

Smiles str	B50
C=C1/C(=C\C=C2/CCC[C@]3(C)[C@@H]([C@H](C)CCC(F)(F)C(O)(CC)CC)CC[C@@H]23)C[C@@H](O)C[C@@H]1O	0.495 nM

Given the molecule C=C1CC[C@H](O)C/C1=C/C=C1\CCC[C@]2(C)[C@@H]([C@H](C)CCC[C@@](C)(O)CO)CC[C@@H]12 , what is its reported B50? 4300 nM

Given the molecule C=C1/C(=C/C=C2\CCC[C@]3(C)[C@@H]([C@H](C)CCCC(C)C)CC[C@@H]23)C[C@@H](O)C[C@@H]1O , what is its reported B50? 139 nM

Given the molecule C=C1CC[C@H](O)C/C1=C/C=C1\CCC[C@]2(C)[C@@H]([C@H](C)CC[C@@H](O)C(C)(C)O)CC[C@@H]12 , what is its reported B50? 804 nM

---

- System: Rattus norvegicus
- Assay summary: Ability to stimulate intestinal-calcium transport by the administration of compound in rats at a concentration of 5 pmol at 24 hr.
- Assay type: functional, Intestine
Below, each entry is listed with its recorded Serosal/Mucosal Ca.
Respond numerically, and do not add a unit to the figure.

Worked set:
Compound	Serosal/Mucosal Ca
C=C1CC[C@H](O)C/C1=C/C=C1\CCC[C@]2(C)[C@@H]([C@H](C)CCCC(C)(C)O)CC[C@@H]12 [CALCIFEDIOL ANHYDROUS]	2.84
C=C1/C(=C\C=C2/CCC[C@]3(C)[C@@H]([C@H](C)CCC(F)(F)C(O)(CC)CC)CC[C@@H]23)C[C@@H](O)C[C@@H]1O	2.14
C=C1CC[C@H](O)C/C1=C/C=C1\CCC[C@]2(C)[C@@H]([C@H](C)CCC(F)(F)C(O)(CC)CC)CC[C@@H]12	2.34

Next, consider the following compound.
// map C=C1/C(=C\C=C2/CCC[C@]3(C)[C@@H]([C@H](C)CCCC(C)(C)O)CC[C@@H]23)C[C@@H](O)C[C@@H]1O [CALCITRIOL] to recorded Serosal/Mucosal Ca (system: Rattus norvegicus) 2.95

---

- Organism: Gallus gallus
- Assay summary: Bind to chick intestinal Vitamin D3 receptor for 1,25-(OH)2-D3
Below, each entry is listed with its recorded B50.
Respond numerically; units are nM and should not be typed.

Worked set:
Molecule	U	Reported result
C=C1/C(=C\C=C2/CCC[C@]3(C)[C@@H]([C@H](C)CCCC(C)(C)O)CC[C@@H]23)C[C@@H](O)C[C@@H]1O [CALCITRIOL]	nM	0.0725
C=C1CC[C@H](O)C/C1=C/C=C1\CCC[C@]2(C)[C@@H]([C@H](C)CCC(F)(F)C(O)(CC)CC)CC[C@@H]12	nM	52.8

Next, consider the following molecule.
Given the molecule C=C1CC[C@H](O)C/C1=C/C=C1\CCC[C@]2(C)[C@@H]([C@H](C)CCCC(C)(C)O)CC[C@@H]12 [CALCIFEDIOL ANHYDROUS] , what is its reported B50? 282

---

Below, each entry is listed with its recorded B50.
- Assay target: Vitamin D-binding protein (Rattus norvegicus) (UniProt P04276)
- Sequence (P04276 whole entry): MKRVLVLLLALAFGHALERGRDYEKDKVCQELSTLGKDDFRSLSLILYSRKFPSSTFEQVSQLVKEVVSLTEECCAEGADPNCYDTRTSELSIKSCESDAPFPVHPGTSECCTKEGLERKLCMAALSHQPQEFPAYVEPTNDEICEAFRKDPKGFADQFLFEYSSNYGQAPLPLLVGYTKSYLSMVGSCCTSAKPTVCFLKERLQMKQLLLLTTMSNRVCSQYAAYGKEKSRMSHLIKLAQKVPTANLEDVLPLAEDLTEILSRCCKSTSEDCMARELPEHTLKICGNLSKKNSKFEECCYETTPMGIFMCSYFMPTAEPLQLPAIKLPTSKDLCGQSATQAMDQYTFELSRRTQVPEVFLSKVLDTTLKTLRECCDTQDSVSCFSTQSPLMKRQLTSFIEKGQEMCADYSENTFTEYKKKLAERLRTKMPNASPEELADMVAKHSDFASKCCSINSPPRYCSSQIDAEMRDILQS
- Assay summary: Displacement of [3H]25-(OH)-D3 from rat plasma Vitamin D binding protein
- Format: cell-free
Respond numerically; units are nM and should not be typed.

Smiles str	Experimental readout	Reported result
C=C1/C(=C\C=C2/CCC[C@]3(C)[C@@H]([C@H](C)CCC(F)(F)C(O)(CC)CC)CC[C@@H]23)C[C@@H](O)C[C@@H]1O	B50	2200

Given the compound C=C1CC[C@H](O)C/C1=C/C=C1\CCC[C@]2(C)[C@@H]([C@H](C)CCC(F)(F)C(O)(CC)CC)CC[C@@H]12 , what is its reported B50? 25.8

Given the compound C=C1/C(=C/C=C2\CCC[C@]3(C)[C@@H]([C@H](C)CCCC(C)C)CC[C@@H]23)C[C@@H](O)C[C@@H]1O , what is its reported B50? 848

Given the compound C=C1/C(=C\C=C2/CCC[C@]3(C)[C@@H]([C@H](C)CCCC(C)(C)O)CC[C@@H]23)C[C@@H](O)C[C@@H]1O , what is its reported B50? 45.3

---

- System: Rattus norvegicus
- Assay summary: Ability to stimulate intestinal-calcium transport by the administration of compound in rats at a concentration of 500 pmol at 2 hr.
- Type: functional, Intestine
Experimental readout: Serosal/Mucosal Ca
Respond numerically, and do not add a unit to the figure.

Compound	Serosal/Mucosal Ca
C=C1CC[C@H](O)C/C1=C/C=C1\CCC[C@]2(C)[C@@H]([C@H](C)CCCC(C)(C)O)CC[C@@H]12 [CALCIFEDIOL ANHYDROUS]	2.22
C=C1/C(=C\C=C2/CCC[C@]3(C)[C@@H]([C@H](C)CCCC(C)(C)O)CC[C@@H]23)C[C@@H](O)C[C@@H]1O [CALCITRIOL]	3.1
C=C1/C(=C\C=C2/CCC[C@]3(C)[C@@H]([C@H](C)CCC(F)(F)C(O)(CC)CC)CC[C@@H]23)C[C@@H](O)C[C@@H]1O	4.55

Given the compound C=C1CC[C@H](O)C/C1=C/C=C1\CCC[C@]2(C)[C@@H]([C@H](C)CCC(F)(F)C(O)(CC)CC)CC[C@@H]12 , what is its reported Serosal/Mucosal Ca? 2.58

---

Below, each entry is listed with its recorded Serosal/Mucosal Ca.
- System: Rattus norvegicus
- Assay summary: Ability to stimulate intestinal-calcium transport by the administration of compound in rats at a concentration of 50 pmol at 24 hr.
- Format: functional, Intestine
Respond numerically, and do not add a unit to the figure.

Molecule	Assay target	Serosal/Mucosal Ca
C=C1/C(=C\C=C2/CCC[C@]3(C)[C@@H]([C@H](C)CCC(F)(F)C(O)(CC)CC)CC[C@@H]23)C[C@@H](O)C[C@@H]1O	Rattus norvegicus	3.93
C=C1CC[C@H](O)C/C1=C/C=C1\CCC[C@]2(C)[C@@H]([C@H](C)CCCC(C)(C)O)CC[C@@H]12 [CALCIFEDIOL ANHYDROUS]	Rattus norvegicus	4.8
C=C1CC[C@H](O)C/C1=C/C=C1\CCC[C@]2(C)[C@@H]([C@H](C)CCC(F)(F)C(O)(CC)CC)CC[C@@H]12	Rattus norvegicus	6.16

Next, consider the following molecule.
Given the molecule C=C1/C(=C\C=C2/CCC[C@]3(C)[C@@H]([C@H](C)CCCC(C)(C)O)CC[C@@H]23)C[C@@H](O)C[C@@H]1O , what is its reported Serosal/Mucosal Ca? 4.34

---

Below, each entry is listed with its recorded Serum Ca2+.
- System: Rattus norvegicus
- Assay summary: Ability to mobilize Bone-Calcium transport, following the administration of compound in rats at a concentration of 5000 pmol at 4 hr.
- Assay type: functional, organism-based
Respond numerically; units are mg/dL and should not be typed.

Compound	Assay target	Experimental readout	Reported result
C=C1CC[C@H](O)C/C1=C/C=C1\CCC[C@]2(C)[C@@H]([C@H](C)CCC(F)(F)C(O)(CC)CC)CC[C@@H]12	Rattus norvegicus	Serum Ca2+	4.56
C=C1/C(=C\C=C2/CCC[C@]3(C)[C@@H]([C@H](C)CCC(F)(F)C(O)(CC)CC)CC[C@@H]23)C[C@@H](O)C[C@@H]1O	Rattus norvegicus	Serum Ca2+	5.48
C=C1CC[C@H](O)C/C1=C/C=C1\CCC[C@]2(C)[C@@H]([C@H](C)CCCC(C)(C)O)CC[C@@H]12 [CALCIFEDIOL ANHYDROUS]	Rattus norvegicus	Serum Ca2+	4.12

Given the compound C=C1/C(=C\C=C2/CCC[C@]3(C)[C@@H]([C@H](C)CCCC(C)(C)O)CC[C@@H]23)C[C@@H](O)C[C@@H]1O , what is its reported Serum Ca2+? 5.6

---

- Test system: Rattus norvegicus
- Assay summary: Ability to stimulate intestinal-calcium transport by the administration of compound in rats at a concentration of 50 pmol at 4 hr.
- Assay type: functional, Intestine
Below, each entry is listed with its recorded Serosal/Mucosal Ca.
Respond numerically, and do not add a unit to the figure.

Worked set:
Compound	Reported result
C=C1/C(=C\C=C2/CCC[C@]3(C)[C@@H]([C@H](C)CCC(F)(F)C(O)(CC)CC)CC[C@@H]23)C[C@@H](O)C[C@@H]1O	4.22
C=C1CC[C@H](O)C/C1=C/C=C1\CCC[C@]2(C)[C@@H]([C@H](C)CCCC(C)(C)O)CC[C@@H]12 [CALCIFEDIOL ANHYDROUS]	2.17
C=C1/C(=C\C=C2/CCC[C@]3(C)[C@@H]([C@H](C)CCCC(C)(C)O)CC[C@@H]23)C[C@@H](O)C[C@@H]1O	5.09

Next, consider the following compound.
Given the compound C=C1CC[C@H](O)C/C1=C/C=C1\CCC[C@]2(C)[C@@H]([C@H](C)CCC(F)(F)C(O)(CC)CC)CC[C@@H]12 , what is its reported Serosal/Mucosal Ca? 1.97
